# RUN DESCRIPTION: refractive index (Na D-line) (dimensionless)
# CONDITIONS USED: 298.15 K; 101.33 kPa; Liquid; Standard Abbe refractometry
PROPERTY LABEL: refractive index

COMPOUND	NUMBER
CC(=O)O [acetic acid]	1.36969
CCCC(=O)O [butanoic acid]	1.39599
O=CO [formic acid]	1.37459
CCC(=O)O [propanoic acid]	1.38484

* * *

# CONDITIONS USED: 298.15 K
PROPERTY LABEL: surface tension liquid-gas (mN/m)

The cases that follow already have their surface tension liquid-gas on record.
COMPOUND	surface tension liquid-gas, mN/m
CCCC(=O)O [butanoic acid]	26.19
CC(=O)O [acetic acid]	27.08

P = CCC(=O)O [propanoic acid]
Q = O=CO [formic acid]
Of the two listed items, which has the higher surface tension liquid-gas? First: P Second: Q State your choice using its label.
Q
(Q: 38.17 mN/m, P: 26.15 mN/m)
